System: IMR-32
Test: Anti-proliferative activity (GI50)
Assay type: cell-based
Settings: Homo sapiens, IMR-32; Table 9; Brain; read-out: Anti-proliferative activity (GI50) IMR-32
Method: Cells were seeded in a 96-well cell culture plates at a concentration of 10,000 cells per well and incubated at 37° C. in CO2 incubator. […] The plate containing cells and test compounds was treated similarly after 48 hours of incubation. […] Plates were agitated to ensure dissolution of the formazan crystals in DMSO and absorbance was read at 570 nm (A570). […]
Structures can show the parent of a compound that is named as a salt.
Reported GI50 values for the following compounds.

[
  {
    "Compound": "O=C(/C=C/c1cccc(Cn2cc(-c3ccc(CN4CCOCC4)cc3)nn2)c1)NO [Example 25, hydrochloride]",
    "GI50": "200 nM"
  },
  {
    "Compound": "O=C(NO)c1ccc(Cn2cc(-c3ccc(CN4CCOCC4)cc3)nn2)cc1",
    "GI50": "900 nM"
  },
  {
    "Compound": "CN(C)Cc1ccc(-c2cn(Cc3ccc(/C=C/C(=O)NO)cc3)nn2)cc1",
    "GI50": "200 nM"
  },
  {
    "Compound": "O=C(NO)c1ccc(Cn2cc(-c3ccc(CN4CCCC4)cc3)nn2)cc1",
    "GI50": "400 nM"
  },
  {
    "Compound": "O=C(/C=C/c1ccc(Cn2cc(-c3ccc(CN4CCCC4)cc3)nn2)cc1)NO",
    "GI50": "250 nM"
  }
]

----------
test system: human HDAC (Hela cells nuclear extract); assay: HDAC activity screening, Hela nuclear extract, Boc-Lys(Ac)-AMC substrate; assay type: biochemical; conditions: 10 μM compound, Hela nuclear extract
Structures can show the parent of a compound that is named as a salt.

[
  {
    "Molecule": "CN(C)Cc1ccc(-c2cn(Cc3ccc(/C=C/C(=O)NO)cc3)nn2)cc1",
    "Target under test": "human HDAC (Hela cells nuclear extract)",
    "Unit of measurement": "%",
    "HDAC % Inhibition (10 μM)": 100
  },
  {
    "Molecule": "O=C(/C=C/c1ccc(Cn2cc(-c3ccc(F)cc3)nn2)cc1)NO",
    "Target under test": "human HDAC (Hela cells nuclear extract)",
    "Unit of measurement": "%",
    "HDAC % Inhibition (10 μM)": 100
  },
  {
    "Molecule": "CN(C)Cc1ccc(-c2cn(Cc3cccc(/C=C/C(=O)NO)c3)nn2)cc1 [Example 27, hydrochloride]",
    "Target under test": "human HDAC (Hela cells nuclear extract)",
    "Unit of measurement": "%",
    "HDAC % Inhibition (10 μM)": 99
  },
  {
    "Molecule": "CN(C)c1ccc(-c2cn(Cc3ccc(/C=C/C(=O)NO)cc3)nn2)cc1",
    "Target under test": "human HDAC (Hela cells nuclear extract)",
    "Unit of measurement": "%",
    "HDAC % Inhibition (10 μM)": 99
  },
  {
    "Molecule": "O=C(/C=C/c1cccc(Cn2cc(-c3ccc(CN4CCCC4)cc3)nn2)c1)NO [Example 26, hydrochloride]",
    "Target under test": "human HDAC (Hela cells nuclear extract)",
    "Unit of measurement": "%",
    "HDAC % Inhibition (10 μM)": 99
  },
  {
    "Molecule": "O=C(/C=C/c1ccc(Cn2cc(-c3ccccc3)nn2)cc1)NO",
    "Target under test": "human HDAC (Hela cells nuclear extract)",
    "Unit of measurement": "%",
    "HDAC % Inhibition (10 μM)": 101
  },
  {
    "Molecule": "O=C(/C=C/c1ccc(Cn2cc(-c3ccc(CN4CCOCC4)cc3)nn2)cc1)NO",
    "Target under test": "human HDAC (Hela cells nuclear extract)",
    "Unit of measurement": "%",
    "HDAC % Inhibition (10 μM)": 100
  },
  {
    "Molecule": "O=C(/C=C/c1cccc(Cn2cc(-c3ccc(CN4CCOCC4)cc3)nn2)c1)NO [Example 25, hydrochloride]",
    "Target under test": "human HDAC (Hela cells nuclear extract)",
    "Unit of measurement": "%",
    "HDAC % Inhibition (10 μM)": 101
  }
]
